Target: HSD17B13 (Homo sapiens (Human), UniProt Q7Z5P4)
Sequence (Q7Z5P4 other isoform, or with tags, fused parts or gaps): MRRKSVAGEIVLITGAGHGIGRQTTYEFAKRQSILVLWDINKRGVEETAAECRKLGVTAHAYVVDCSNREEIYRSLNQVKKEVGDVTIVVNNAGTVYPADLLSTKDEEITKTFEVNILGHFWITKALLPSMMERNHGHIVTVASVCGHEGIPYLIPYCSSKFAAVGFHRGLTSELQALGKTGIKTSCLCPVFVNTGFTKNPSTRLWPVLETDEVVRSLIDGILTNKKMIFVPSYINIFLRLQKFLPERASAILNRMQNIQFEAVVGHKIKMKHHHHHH
Test: HSD17B13 enzymatic inhibition assay (150 nM or 50 nM HSD17B13)
Format: biochemical
Details: 50 nM HSD17B13; read-out: Inhibition of 50 nM of HSD17B13 IC50
assay metric: IC50 (nM)

compound | tested system | IC50 [nM]
CCCC1CC(NC(=O)c2ccc(C(F)(F)F)[nH]c2=O)c2ccc(C)cc2O1 (centres unmarked) | HSD17B13 (Homo sapiens (Human), UniProt Q7Z5P4) | 230
C/C=C/c1ccc(C(NC(=O)c2ccc(C(F)(F)F)[nH]c2=O)c2ccccc2)cc1 (centres unmarked) | HSD17B13 (Homo sapiens (Human), UniProt Q7Z5P4) | 470
Cc1ccc2c(c1)C(NC(=O)c1ccc(C(F)(F)F)[nH]c1=O)c1ccccc1S2(=O)=O (centres unmarked) | HSD17B13 (Homo sapiens (Human), UniProt Q7Z5P4) | 420
O=C(NC1c2ccccc2Sc2ccccc21)c1ccc(C(F)(F)F)[nH]c1=O [Compound 10A] | HSD17B13 (Homo sapiens (Human), UniProt Q7Z5P4) | 1460

I: CSc1ccc(C(NC(=O)c2ccc(C(F)(F)F)[nH]c2=O)c2ccc(C)cc2)cc1 (centres unmarked)
II: CCCC1=C(NC(=O)c2ccc(C(F)(F)F)[nH]c2=O)c2cc(C)ccc2C1=O
Between the entries labeled I and II , whose measured IC50 is lower? Could you answer with the label of the item you picked? I
(I: 140 nM, II: 4670 nM)

a: Cc1ccc(C(NC(=O)c2ccc(C(F)(F)F)[nH]c2=O)c2ccccc2)cc1C (centres unmarked)
b: O=C(NC(c1ccc(OC(F)F)cc1)c1ccc(OC(F)F)cc1)c1ccc(C(F)(F)F)[nH]c1=O
Compare a and b and name the one whose reported IC50 is smaller. Reply briefly: the label of your chosen item. a

* * *

Assay: Microsome stability assay, human liver microsomes
Assay type: in vitro ADME
Conditions: 60 min; 1 μM compound, 0.5 mg/mL microsomal protein
assay metric: Microsome Stability Human liver microsomes % Remaining @60 min (%)

molecule | output unit | test result
CCC1Cc2cc(OC)ccc2C(NC(=O)c2ccc(C(F)(F)F)[nH]c2=O)C1 (centres unmarked) | % | 11

A: CCCC1CCc2cc(Cl)ccc2C1NC(=O)c1ccc(C(F)(F)F)[nH]c1=O (centres unmarked)
B: O=C(NC(c1ccccc1)c1ccccc1O)c1ccc(C(F)(F)F)[nH]c1=O (centres unmarked)
Param pair: A , B . Output: the one whose Microsome Stability Human liver microsomes % Remaining @60 min is numerically greater. Refer to your chosen entry by its label in the reply. A
(A: 27.10%, B: 14.90%)

P: CCCC1CCc2cc(OC)ccc2C1NC(=O)c1ccc(C(F)(F)F)[nH]c1=O (centres unmarked)
Q: CCC[C@H]1Oc2cc(C)ccc2[C@@H]1NC(=O)c1ccc(C(F)(F)F)[nH]c1=O
R: Cc1ccc2c(c1)[C@H](NC(=O)c1ccc(C(F)(F)F)[nH]c1=O)C[C@@H](C)N2
S: CCC[C@H]1C[C@@H](NC(=O)c2ccc(C(F)(F)F)[nH]c2=O)c2cc(C)ccc2N1
Rank items: key Microsome Stability Human liver microsomes % Remaining @60 min, increasing. As an answer, provide the labels arranged in the order called for. Q, P, S, R
(Q: 1%, P: 14.90%, S: 58.50%, R: 86.70%)

A: O=C(NC(c1ccccc1)c1ccccc1Cl)c1ccc(C(F)(F)F)[nH]c1=O (centres unmarked)
B: CC[C@@H]1Oc2cc(C)ccc2[C@H]1NC(=O)c1ccc(C(F)(F)F)[nH]c1=O
Would you let me know which has the greater Microsome Stability Human liver microsomes % Remaining @60 min value, A or B ? Record your answer as the label of the chosen record. A
(A: 82.00%, B: 1%)

I: Cc1ccc2c(c1)[C@@H](O)CC[C@H]2NC(=O)c1ccc(C(F)(F)F)[nH]c1=O
II: CCCC1=Cc2cc(C)ccc2C1NC(=O)c1ccc(C(F)(F)F)[nH]c1=O (centres unmarked)
Consider entries I and II . Which has the numerically lower Microsome Stability Human liver microsomes % Remaining @60 min? Provide the label of your selected option as the answer. II
(II: 1.70%, I: 78.40%)

a: O=C(NC1c2ccc(Cl)cc2Oc2cc(Cl)ccc21)c1ccc(C(F)(F)F)[nH]c1=O
b: Cc1ccc2c(c1)Sc1cc(C)ccc1C2NC(=O)c1cc(-c2ccccc2)c(C(F)(F)F)[nH]c1=O
# returns the entry with the larger Microsome Stability Human liver microsomes % Remaining @60 min; inputs a and b Please indicate the selected item by its label. a
(a: 101.00%, b: 12.80%)

A: CCC1Cc2cc(OC)ccc2C1NC(=O)c1ccc(C(F)(F)F)[nH]c1=O (centres unmarked)
B: Cc1ccccc1C(NC(=O)c1ccc(C(F)(F)F)[nH]c1=O)c1ccccc1 (centres unmarked)
C: O=C(NC(c1ccccc1)c1ccc(O)cc1)c1ccc(C(F)(F)F)[nH]c1=O (centres unmarked)
D: Cc1ccc2c(c1)Oc1cccc(Cl)c1C2NC(=O)c1ccc(C(F)(F)F)[nH]c1=O (centres unmarked)
Put the items in order so that reported Microsome Stability Human liver microsomes % Remaining @60 min rises from first to last. Would you mind listing the labels in the order asked for? D, A, B, C
(D: 0.62%, A: 1%, B: 16.00%, C: 49.80%)

* * *

Assay: Microsome stability assay, mouse liver microsomes
Assay type: in vitro ADME
Conditions: mouse, mouse liver microsomes, pooled; 1 μM compound, 0.5 mg/mL microsomal protein, NADPH, 37° C.; read-out: Microsome Stability Mouse liver microsomes T½
assay metric: half-life at 1 h, 1 µM (min)

Worked examples, 5 molecules total:
molecule | half-life at 1 h, 1 µM / min
Cc1cccc(C(NC(=O)c2ccc(C(F)(F)F)[nH]c2=O)c2ccccc2)c1 (stereo not drawn) | 9.87
O=C(NC(c1ccccc1)c1ccccc1)c1ccc(C(F)(F)F)[nH]c1=O | 32.7
COc1ccc2c(c1)Sc1ccccc1C2NC(=O)c1ccc(C(F)F)[nH]c1=O (stereo not drawn) | 20.3
CCC1CCc2cc(OC)ccc2C1NC(=O)c1ccc(C(F)(F)F)[nH]c1=O (stereo not drawn) | 50.6
Cc1ccc2c(c1)Sc1cc(C)ccc1C2NC(=O)c1cc(-c2ccccc2)c(C(F)(F)F)[nH]c1=O | 144

1: Cc1ccc2c(c1)SC(C)CC2NC(=O)c1ccc(C(F)(F)F)[nH]c1=O (stereo not drawn)
2: O=C(NC(c1ccccc1)c1ccccc1Cl)c1ccc(C(F)(F)F)[nH]c1=O (stereo not drawn)
Just curious, which one has the larger half-life at 1 h, 1 µM reading, 1 or 2 ? Answer by quoting the chosen item's label. 1

* * *

Assay: Microsome stability assay, human liver microsomes
Assay type: in vitro ADME
Details: human, human liver microsomes, pooled; 1 μM compound, 0.5 mg/mL microsomal protein, NADPH, 37° C.; read-out: Microsome Stability Human liver microsomes T½
assay metric: half-life at 1 h, 1 µM (min)

compound | half-life at 1 h, 1 µM, min
CC(C)c1ccc(C(NC(=O)c2ccc(C(F)(F)F)[nH]c2=O)c2ccccc2)cc1 (stereo not drawn) | 15
Cc1ccc2c(c1)Sc1cc(C)ccc1C2NC(=O)c1cc(-c2ccccc2)c(C(F)(F)F)[nH]c1=O | 19
O=C(NC1c2ccccc2-c2ccccc21)c1ccc(C(F)(F)F)[nH]c1=O | 5.22
CCc1ccc(C(NC(=O)c2ccc(C(F)(F)F)[nH]c2=O)c2ccccc2)cc1 (stereo not drawn) | 8.86
COc1ccc2c(c1)Oc1cc(OC)ccc1C2NC(=O)c1ccc(C(F)F)[nH]c1=O | 105

I: CCCc1ccc(C(NC(=O)c2ccc(C(F)(F)F)[nH]c2=O)c2ccccc2)cc1 (stereo not drawn)
II: Cc1ccc(C(CC2CCC2)NC(=O)c2ccc(C(F)(F)F)[nH]c2=O)cc1 (stereo not drawn)
Just tell me: smaller half-life at 1 h, 1 µM value, I or II ? API: response body contains the label of the selected item. II
(II: 3.17 min, I: 11 min)

P: Cc1ccc2c(c1)CCC(C)C2NC(=O)c1ccc(C(F)(F)F)[nH]c1=O (stereo not drawn)
Q: CCC[C@@H]1C[C@H](NC(=O)c2ccc(C(F)(F)F)[nH]c2=O)c2ccc(C)cc2N1
Kindly compare P with Q and tell me which has the lower half-life at 1 h, 1 µM figure. Respond with the label that goes with your answer. P

1: Cc1ccc2c(c1)Oc1cc(C)ccc1C2NC(=O)c1cc(OC2CCOCC2)c(C(F)(F)F)[nH]c1=O
2: CC1CCc2cc(Cl)ccc2C1NC(=O)c1ccc(C(F)(F)F)[nH]c1=O (stereo not drawn)
3: Cc1ccc(C(NC(=O)c2ccc(C(F)(F)F)[nH]c2=O)c2ccc(C)cc2)cc1
4: Nc1cccc2c(NC(=O)c3ccc(C(F)(F)F)[nH]c3=O)cccc12
5: COc1ccc2c(c1)CCCC2NC(=O)c1ccc(C(F)(F)F)[nH]c1=O (stereo not drawn)
Arrange items by their half-life at 1 h, 1 µM values in increasing order. # format: label list in the order the request specifies 5, 2, 1, 3, 4

P: CCC1CCc2cc(OC)ccc2C1NC(=O)c1ccc(C(F)(F)F)[nH]c1=O (stereo not drawn)
Q: Cc1ccc2c(c1)Oc1cccc(Cl)c1C2NC(=O)c1ccc(C(F)(F)F)[nH]c1=O (stereo not drawn)
API: POST /compare with P and Q ; response names the item with higher half-life at 1 h, 1 µM. The response must carry the label of the picked entry. P

P: Cc1ccc2c(c1)-c1cc(C)ccc1C2NC(=O)c1ccc(C(F)(F)F)[nH]c1=O
Q: CCCC1=Cc2cc(C)ccc2C1NC(=O)c1ccc(C(F)(F)F)[nH]c1=O (stereo not drawn)
I'm curious, which of these has a smaller half-life at 1 h, 1 µM number: P or Q ? Selection: enter the item's label. Q

P: O=C(NC(c1ccccc1)c1cccc(O)c1)c1ccc(C(F)(F)F)[nH]c1=O (stereo not drawn)
Q: Cc1ccc2c(c1)Sc1cc(C)ccc1C2NC(=O)c1cc(-c2ccccn2)c(C(F)(F)F)[nH]c1=O
R: COc1ccc2c(c1)Sc1ccccc1C2NC(=O)c1ccc(C(F)F)[nH]c1=O (stereo not drawn)
S: Cc1ccc2c(c1)Oc1cc(Cl)ccc1C2NC(=O)c1ccc(C(F)(F)F)[nH]c1=O (stereo not drawn)
T: CCC1CCc2cc(C)ccc2C1NC(=O)c1ccc(C(F)(F)F)[nH]c1=O (stereo not drawn)
Order the items by recorded half-life at 1 h, 1 µM; the first position goes to the largest value. List the labels in the requested order. R, S, P, Q, T
(R: 114 min, S: 77.9 min, P: 42 min, Q: 9 min, T: 3.81 min)

1: O=C(NC(c1ccccc1)c1ccc(-c2ccccc2)cc1)c1ccc(C(F)(F)F)[nH]c1=O (stereo not drawn)
2: CCCC1CCc2cc(Cl)ccc2C1NC(=O)c1ccc(C(F)(F)F)[nH]c1=O (stereo not drawn)
Look at 1 and 2 . Which one has the lower recorded half-life at 1 h, 1 µM number? Select an item and report its label. 1
(1: 12.6 min, 2: 32.3 min)

a: O=C(NC(c1ccccc1)c1ccc2c(c1)OCO2)c1ccc(C(F)(F)F)[nH]c1=O (stereo not drawn)
b: CCC1Cc2cc(OC)ccc2C(NC(=O)c2ccc(C(F)(F)F)[nH]c2=O)C1 (stereo not drawn)
// max by half-life at 1 h, 1 µM over [ a , b ] Please respond with the label that marks your chosen entry. b
(b: 9.15 min, a: 6.39 min)
